Biological target: p110γ (Homo sapiens)
Sequence (P48736 whole entry): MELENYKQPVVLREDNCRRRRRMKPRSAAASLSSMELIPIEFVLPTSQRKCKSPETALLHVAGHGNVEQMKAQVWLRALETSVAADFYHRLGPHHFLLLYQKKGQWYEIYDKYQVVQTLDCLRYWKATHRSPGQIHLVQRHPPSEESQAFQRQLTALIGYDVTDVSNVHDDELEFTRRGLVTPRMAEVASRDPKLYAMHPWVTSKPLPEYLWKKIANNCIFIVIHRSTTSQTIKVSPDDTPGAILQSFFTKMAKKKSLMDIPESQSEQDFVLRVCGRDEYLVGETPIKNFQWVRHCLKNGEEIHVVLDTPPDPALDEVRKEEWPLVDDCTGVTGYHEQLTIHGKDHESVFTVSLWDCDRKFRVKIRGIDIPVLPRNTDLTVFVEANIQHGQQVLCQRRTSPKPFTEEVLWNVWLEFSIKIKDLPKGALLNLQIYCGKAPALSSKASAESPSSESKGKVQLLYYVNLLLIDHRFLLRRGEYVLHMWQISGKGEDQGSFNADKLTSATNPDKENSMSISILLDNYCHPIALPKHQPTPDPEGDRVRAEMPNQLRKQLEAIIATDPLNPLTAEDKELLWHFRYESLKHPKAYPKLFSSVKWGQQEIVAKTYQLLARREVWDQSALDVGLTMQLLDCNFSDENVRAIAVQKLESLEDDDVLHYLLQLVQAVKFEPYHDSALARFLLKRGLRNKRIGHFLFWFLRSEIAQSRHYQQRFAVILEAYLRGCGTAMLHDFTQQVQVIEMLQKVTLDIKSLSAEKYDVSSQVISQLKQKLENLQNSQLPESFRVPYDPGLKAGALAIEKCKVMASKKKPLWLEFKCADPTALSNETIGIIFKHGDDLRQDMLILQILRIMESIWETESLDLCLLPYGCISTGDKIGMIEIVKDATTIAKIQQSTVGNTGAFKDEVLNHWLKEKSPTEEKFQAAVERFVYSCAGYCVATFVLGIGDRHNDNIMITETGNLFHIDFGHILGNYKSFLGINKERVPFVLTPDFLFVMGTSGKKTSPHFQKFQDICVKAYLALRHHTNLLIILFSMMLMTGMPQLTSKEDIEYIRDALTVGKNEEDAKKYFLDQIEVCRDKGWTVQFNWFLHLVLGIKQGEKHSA
Assay: Transcreener KINASE Assay, kinase inhibition of p110γ
Format: biochemical
Conditions: 1 uM test compound
Readout kind: PI3Kγ IH % @ 1 uM (%)

Known results for compounds:
CC(Nc1ncnc2[nH]cnc12)c1cn2cccc2c(=O)n1-c1ccccc1 (centres unmarked): 78.6
CC(Nc1ncnc2[nH]cc(F)c12)c1cn2ccc(Cl)c2c(=O)n1-c1ccccc1 (centres unmarked): 89.7

a = N#Cc1c[nH]c2ncnc(N3CC[C@H]3c3nn4ccc(Cl)c4c(=O)n3CC(F)F)c12
b = CC(=O)c1cnc(N)nc1N1C[C@H](C)[C@H]1c1nn2ccc(Cl)c2c(=O)n1-c1ccccn1
Sort a and b by PI3Kγ IH % @ 1 uM descending and give the first. Return value: the label identifying the chosen record. b

---

Target: p110δ/p85α (Homo sapiens, UniProt O00329)
Sequence (O00329 whole entry): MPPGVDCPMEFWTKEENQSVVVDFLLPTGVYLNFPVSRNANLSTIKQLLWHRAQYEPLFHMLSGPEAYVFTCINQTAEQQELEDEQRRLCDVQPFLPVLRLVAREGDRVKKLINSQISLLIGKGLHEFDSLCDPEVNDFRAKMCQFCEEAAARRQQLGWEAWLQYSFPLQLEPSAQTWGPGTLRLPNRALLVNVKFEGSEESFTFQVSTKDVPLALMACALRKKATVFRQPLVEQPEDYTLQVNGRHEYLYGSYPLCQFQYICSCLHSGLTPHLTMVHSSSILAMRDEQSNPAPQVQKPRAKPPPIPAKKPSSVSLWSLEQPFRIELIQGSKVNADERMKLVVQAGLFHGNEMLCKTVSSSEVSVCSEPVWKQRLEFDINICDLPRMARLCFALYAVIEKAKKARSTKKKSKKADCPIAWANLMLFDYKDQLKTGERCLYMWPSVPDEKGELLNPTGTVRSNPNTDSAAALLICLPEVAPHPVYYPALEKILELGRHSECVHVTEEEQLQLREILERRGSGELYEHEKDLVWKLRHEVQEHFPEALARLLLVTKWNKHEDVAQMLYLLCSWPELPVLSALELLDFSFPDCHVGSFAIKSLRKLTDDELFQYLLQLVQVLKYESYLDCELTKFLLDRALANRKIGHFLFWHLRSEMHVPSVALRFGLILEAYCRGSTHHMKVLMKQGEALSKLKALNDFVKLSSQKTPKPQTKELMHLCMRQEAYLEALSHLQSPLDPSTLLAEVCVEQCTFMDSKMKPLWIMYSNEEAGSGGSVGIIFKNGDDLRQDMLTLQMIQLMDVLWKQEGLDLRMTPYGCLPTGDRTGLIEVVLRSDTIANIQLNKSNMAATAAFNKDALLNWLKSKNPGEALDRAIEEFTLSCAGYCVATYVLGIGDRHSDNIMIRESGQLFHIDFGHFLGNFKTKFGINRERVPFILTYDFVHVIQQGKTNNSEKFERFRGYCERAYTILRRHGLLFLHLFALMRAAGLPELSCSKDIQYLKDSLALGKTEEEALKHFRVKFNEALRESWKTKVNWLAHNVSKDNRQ
Sequence (P27986 whole entry partner): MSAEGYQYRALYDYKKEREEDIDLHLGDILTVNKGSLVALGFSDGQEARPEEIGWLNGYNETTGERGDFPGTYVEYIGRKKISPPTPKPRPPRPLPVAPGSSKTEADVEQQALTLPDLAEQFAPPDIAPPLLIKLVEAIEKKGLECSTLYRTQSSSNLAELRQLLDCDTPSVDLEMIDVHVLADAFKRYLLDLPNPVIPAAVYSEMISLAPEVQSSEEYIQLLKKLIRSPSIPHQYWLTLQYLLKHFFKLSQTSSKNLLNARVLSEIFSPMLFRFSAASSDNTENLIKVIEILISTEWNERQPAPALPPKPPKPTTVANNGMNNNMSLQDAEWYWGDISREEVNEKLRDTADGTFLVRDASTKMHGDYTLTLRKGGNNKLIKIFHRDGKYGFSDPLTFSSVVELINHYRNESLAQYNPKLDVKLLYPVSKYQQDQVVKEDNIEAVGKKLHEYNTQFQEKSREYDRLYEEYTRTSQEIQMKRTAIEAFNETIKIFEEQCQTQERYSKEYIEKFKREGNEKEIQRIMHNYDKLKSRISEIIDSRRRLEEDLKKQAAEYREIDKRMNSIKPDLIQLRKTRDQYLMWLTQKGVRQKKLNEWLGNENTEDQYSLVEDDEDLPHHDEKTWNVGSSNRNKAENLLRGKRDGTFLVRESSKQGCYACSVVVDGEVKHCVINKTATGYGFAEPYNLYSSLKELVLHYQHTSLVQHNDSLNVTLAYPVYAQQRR
Assay: Transcreener KINASE Assay, kinase inhibition of p110δ/p85α
Conditions: read-out: PI3Kδ IC50
Readout kind: IC50 (nM)

Worked cases, IC50 given:
CC(=O)c1cnc(N)nc1N1CC[C@H]1c1nn2ccc(Cl)c2c(=O)n1-c1cccc(F)c1: 11
CC(Nc1ncnc2[nH]cc(F)c12)c1cn2ccc(Cl)c2c(=O)n1-c1ccccc1 (stereo not shown): 12
N#Cc1cnc(N)nc1N1CCC[C@H]1c1nn2ccc(Cl)c2c(=O)n1-c1cccc(F)c1: 6

A = COCCO[C@H]1C[C@@H](c2nn3ccc(Cl)c3c(=O)n2-c2ccccc2)N(c2ncnc3[nH]cnc23)C1
B = CC(=O)c1c[nH]c2ncnc(N3CCC[C@H]3c3nn4ccc(Cl)c4c(=O)n3-c3ccccn3)c12
C = Cc1nc(N)nc(N2CC[C@H]2c2nn3ccc(Cl)c3c(=O)n2-c2ccc(F)cc2)c1C#N
D = CC(Nc1ncnc2[nH]cc(C#N)c12)c1cc2c(Cl)cc(Cl)n2c(=O)n1-c1cccc(F)c1 (stereo not shown)
Sort by IC50, descending. Answer by listing the labels in the requested order. D, C, A, B

---

Target: p110β/p85α (Homo sapiens, UniProt P42338)
Sequence (P42338 whole entry, one chain of several): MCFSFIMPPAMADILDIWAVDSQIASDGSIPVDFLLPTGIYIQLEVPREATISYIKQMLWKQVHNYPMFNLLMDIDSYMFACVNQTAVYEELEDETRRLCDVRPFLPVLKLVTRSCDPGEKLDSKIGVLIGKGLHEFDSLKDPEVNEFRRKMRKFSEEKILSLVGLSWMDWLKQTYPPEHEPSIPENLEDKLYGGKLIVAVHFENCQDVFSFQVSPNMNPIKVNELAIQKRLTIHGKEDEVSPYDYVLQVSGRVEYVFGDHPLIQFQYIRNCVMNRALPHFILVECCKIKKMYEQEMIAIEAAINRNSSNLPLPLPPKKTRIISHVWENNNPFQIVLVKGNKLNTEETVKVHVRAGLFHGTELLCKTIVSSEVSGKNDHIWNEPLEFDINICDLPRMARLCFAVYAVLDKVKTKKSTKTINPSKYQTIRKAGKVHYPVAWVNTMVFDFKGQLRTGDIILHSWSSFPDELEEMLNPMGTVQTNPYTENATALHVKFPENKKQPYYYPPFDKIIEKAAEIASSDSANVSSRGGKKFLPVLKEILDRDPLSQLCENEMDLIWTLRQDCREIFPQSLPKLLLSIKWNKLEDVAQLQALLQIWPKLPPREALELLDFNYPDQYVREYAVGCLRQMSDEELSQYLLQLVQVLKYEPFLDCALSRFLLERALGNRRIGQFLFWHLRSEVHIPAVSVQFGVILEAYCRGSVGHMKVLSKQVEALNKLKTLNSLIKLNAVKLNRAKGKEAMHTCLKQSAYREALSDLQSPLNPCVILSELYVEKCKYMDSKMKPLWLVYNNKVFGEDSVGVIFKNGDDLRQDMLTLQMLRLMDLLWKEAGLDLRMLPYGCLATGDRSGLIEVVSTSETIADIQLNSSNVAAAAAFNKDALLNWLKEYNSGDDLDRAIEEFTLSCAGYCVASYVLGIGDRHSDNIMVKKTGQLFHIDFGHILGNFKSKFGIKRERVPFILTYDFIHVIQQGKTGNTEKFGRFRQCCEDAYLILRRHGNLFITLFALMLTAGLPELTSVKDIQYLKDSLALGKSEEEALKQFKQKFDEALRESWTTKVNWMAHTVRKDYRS
Experiment: Transcreener KINASE Assay, kinase inhibition of p110β/p85α
Assay type: biochemical
Details: 1 uM test compound
Readout kind: PI3Kβ IH % @ 1 uM (%)

COCCNC(=O)c1c[nH]c2ncnc(N3CCC[C@H]3c3nn4ccc(Cl)c4c(=O)n3-c3ccccc3)c12: 41.8
CC(=O)c1c[nH]c2ncnc(NC(C)c3cn4ccc(Cl)c4c(=O)n3-c3cccc(F)c3)c12 (stereo not drawn): 52.9
Nc1nc(N2CC[C@H]2c2nn3ccc(Cl)c3c(=O)n2-c2ccccc2)c2ncccc2n1: 11.2
CC(=O)c1c(N)ncnc1NC(C)c1cn2ccc(Cl)c2c(=O)n1-c1ccccc1 (stereo not drawn): 61.6
C[C@H]1CN(c2nc(N)ncc2C#N)[C@@H]1c1nn2ccc(C#N)c2c(=O)n1-c1ccccc1: 24.0

P = O=c1c2c(Cl)ccn2nc([C@@H]2CCCN2c2nc(F)nc3[nH]cnc23)n1-c1ccccc1
Q = COCCNC(=O)c1c[nH]c2ncnc(N3CC[C@H]3c3nn4ccc(Cl)c4c(=O)n3-c3ccccc3)c12
Lab log: flag the item ( P or Q ) with the smaller PI3Kβ IH % @ 1 uM figure. Respond with the label that goes with your answer. Q

1 = N#Cc1c[nH]c2ncnc(N3CCC[C@H]3c3nn4ccc(C5CC5)c4c(=O)n3-c3ccccc3)c12
2 = C#Cc1cnc(N)nc1N1CC[C@H]1c1nn2ccc(Cl)c2c(=O)n1-c1ccccc1
3 = Nc1ncnc(N2CCC[C@H]2c2nn3ccc(Cl)c3c(=O)n2-c2ccccc2)c1Cl
4 = Nc1ncc([N+](=O)[O-])c(N2CCC[C@H]2c2nn3ccc(Cl)c3c(=O)n2-c2ccccc2)n1
Sort by PI3Kβ IH % @ 1 uM, descending. Reply format: the labels, ordered as requested. 3, 4, 2, 1
(3: 82.6%, 4: 45.0%, 2: 22.7%, 1: 8.8%)

1 = Cc1nc(N)nc(N2CC[C@H]2c2nn3ccc(C(F)(F)F)c3c(=O)n2-c2ccccc2)c1C#N
2 = C[S@@+]([O-])c1c[nH]c2ncnc(N3CC[C@H]3c3nn4ccc(Cl)c4c(=O)n3-c3ccccn3)c12
Endpoint returns whichever of 1 and 2 has the numerically higher PI3Kβ IH % @ 1 uM. Write down the label of the entry you select. 1
(1: 64.7%, 2: 0.1%)

I = CC(=O)c1cnc(N)nc1N1C[C@H](C)[C@H]1c1nn2ccc(Cl)c2c(=O)n1-c1cccc(F)c1
II = Nc1nc(N2CCC[C@H]2c2nn3ccc(C4CC4)c3c(=O)n2-c2ccccc2)c2nc[nH]c2n1
Compare I and II by numeric PI3Kβ IH % @ 1 uM and name the larger one. Let me know the label of the one you choose. I
(I: 77.1%, II: −11.0%)

---

Target: p110β/p85α (Homo sapiens, UniProt P42338)
Experiment: Transcreener KINASE Assay, kinase inhibition of p110β/p85α
Assay type: biochemical
Settings: 1 uM test compound
Readout kind: PI3Kβ IH % @ 1 uM (%)

a = CC(=O)c1cnc(N)nc1N1CC[C@@H]1c1nn2ccc(Cl)c2c(=O)n1-c1ccccc1
b = N#Cc1c[nH]c2ncnc(N3C[C@@H](F)C[C@H]3c3nn4ccc(F)c4c(=O)n3-c3ccccn3)c12
For the pair a and b , which member has the lower PI3Kβ IH % @ 1 uM number? Indicate your choice by writing its label. a

I = CC(=O)c1c[nH]c2ncnc(N3CC[C@H]3c3nn4ccc(Cl)c4c(=O)n3-c3ccc(F)cc3)c12
II = Nc1nc2cccc(N3CCC[C@H]3c3nn4ccc(Cl)c4c(=O)n3-c3ccccc3)n2n1
III = CN(C)CCn1c([C@@H]2CCCN2c2ncnc3[nH]cc(C#N)c23)nn2ccc(Cl)c2c1=O
Put the entries in order of PI3Kβ IH % @ 1 uM, starting with the largest number. Write out the labels following the order that was asked for. III, II, I

P = COc1ncc(-c2c[nH]c3ncnc(N4CC[C@H]4c4nn5ccc(Cl)c5c(=O)n4-c4ccccc4)c23)cn1
Q = C=Cc1ccn2nc([C@@H]3CCN3c3ncnc4[nH]cc(C#N)c34)n(-c3ccccc3)c(=O)c12
Which shows the larger PI3Kβ IH % @ 1 uM value: P or Q ? Give the label of your selection. P
(P: 89.8%, Q: 12.6%)

1 = CS(=O)(=O)[C@H]1C[C@@H](c2nn3ccc(Cl)c3c(=O)n2-c2ccccc2)N(c2ncnc3[nH]cc(C#N)c23)C1
2 = COc1ccc(-c2c(N)ncnc2N2CC[C@H]2c2nn3ccc(Cl)c3c(=O)n2-c2ccccc2)cn1
Dear colleague, could you let me know whether 1 or 2 has the lower recorded PI3Kβ IH % @ 1 uM? Thanks. Please respond with the label that marks your chosen entry. 2
(2: 26.9%, 1: 79.0%)

---

Target: p110δ/p85α (Homo sapiens)
Assay: Transcreener KINASE Assay, kinase inhibition of p110δ/p85α
Type: biochemical
Conditions: 1 uM test compound
Readout kind: PI3Kδ IH % @ 1 uM (%)

Nc1nc(N2CC[C@H]2c2nn3ccc(Cl)c3c(=O)n2-c2ccccc2)n2ncc(Cl)c2n1 [Compound 314]: 17.2
O=c1c2c(Cl)ccn2nc([C@@H]2CC(F)(F)CN2c2ncnc3[nH]cnc23)n1-c1ccccc1 [Compound 57]: 98.2
N#Cc1c[nH]c2ncnc(N3CC[C@H]3c3nn4ccc(Cl)c4c(=O)n3CC3CC3)c12 [Compound 371]: 89.8
O=c1c2c(CO)ccn2nc([C@@H]2CCCN2c2ncnc3[nH]cnc23)n1-c1ccccc1 [Compound 177]: 97.1

1 = CCC(=O)c1cnc(N)nc1N1CC[C@H]1c1nn2ccc(Cl)c2c(=O)n1-c1ccccc1 [Compound 362]
2 = C[S+]([O-])c1c[nH]c2ncnc(N3CCC[C@H]3c3nn4ccc(Cl)c4c(=O)n3-c3ccccc3)c12 (stereo partly drawn) [Compound 187]
When 1 and 2 are compared, which has the higher number for PI3Kδ IH % @ 1 uM? Refer to your chosen item by its label in the answer. 2
(2: 99.0%, 1: 56.0%)

---

Biological target: p110γ (Homo sapiens)
Test: Transcreener KINASE Assay, kinase inhibition of p110γ
Type: biochemical
Conditions: 1 uM test compound
Readout kind: PI3Kγ IH % @ 1 uM (%)

These solved cases illustrate the format of a correct answer.
Nc1nc2c(c(N3CCC[C@H]3c3nn4ccc(Cl)c4c(=O)n3-c3ccccc3)n1)CCC2: 80.8
Nc1nc(N2CC(F)(F)C[C@H]2c2nn3ccc(Cl)c3c(=O)n2-c2ccccc2)n2nccc2n1: 95.0
C[S+]([O-])c1n[nH]c2ncnc(N3CC[C@H]3c3nn4ccc(Cl)c4c(=O)n3-c3ccccc3)c12 (stereo partly drawn): 79.2
CC(=O)c1cnc(N)nc1N1C[C@H](C)[C@H]1c1nn2ccc(C#N)c2c(=O)n1-c1ccccc1: 98.7
CC(=O)c1c[nH]c2ncnc(NC(C)c3cc4ncc(Cl)n4c(=O)n3-c3ccccc3)c12 (stereo not drawn): 96.9
C[S@+]([O-])c1c[nH]c2ncnc(N3CCC[C@H]3c3nn4ccc(Cl)c4c(=O)n3-c3cccc(F)c3)c12 (single isomer, unassigned): 95.0
Nc1nc(N2CCC[C@H]2c2nn3ccc(C4CC4)c3c(=O)n2-c2ccccc2)c2nc[nH]c2n1: 86.4
CC(=O)c1c[nH]c2ncnc(N3CCC[C@H]3c3nn4ccc(Cl)c4c(=O)n3-c3cccc(F)c3)c12: 92.0

A = Nc1nc2c(c(N3CCC[C@H]3c3nn4ccc(Cl)c4c(=O)n3-c3ccccc3)n1)C(=O)CCN2
B = CC(O)c1cnc(N)nc1N1CC[C@H]1c1nn2ccc(Cl)c2c(=O)n1-c1ccccc1 (stereo partly drawn)
C = O=c1c2cccn2nc([C@@H]2CCN2c2ncnc3[nH]cnc23)n1-c1ccccc1
Give the ascending ranking of the items by reported PI3Kγ IH % @ 1 uM. Give the labels in the order requested. C, B, A
(C: 16.6%, B: 66.2%, A: 98.9%)
